Test system: Streptococcus pneumoniae
procedure-summary: Antibacterial activity against penicillin-intermediate resistant Streptococcus pneumoniae after 18 hrs by twofold microbroth dilution method
Format: functional
Listed next: entries and their corresponding MIC90.

| compound | MIC90 / µg/mL |
| --- | --- |
| COc1c(N2CCNC(C)C2)c(F)cc2c(=O)c(C(=O)O)cn(C3CC3)c12 (stereo unspecified) | 0.5 |
| CN[C@H](CC(C)C)C(=O)N[C@H]1C(=O)N[C@@H](CC(N)=O)C(=O)N[C@H]2C(=O)N[C@H]3C(=O)N[C@H](C(=O)N[C@H](C(=O)O)c4cc(O)cc(O)c4-c4cc3ccc4O)[C@H](O)c3ccc(c(Cl)c3)Oc3cc2cc(c3O[C@@H]2O[C@H](CO)[C@@H](O)[C@H](O)[C@H]2O[C@H]2C[C@](C)(N)[C@H](O)[C@H](C)O2)Oc2ccc(cc2Cl)[C@H]1O | 0.5 |
| CC(=O)NC[C@H]1CN(c2ccc(N3CCOCC3)c(F)c2)C(=O)O1 | 2 |
| NCC[C@H](O)C(=O)N[C@@H]1C[C@H](N)[C@@H](O[C@H]2O[C@H](CN)CC[C@H]2N)[C@H](O)[C@H]1O[C@H]1O[C@H](CO)[C@@H](O)[C@H](N)[C@H]1O | 64 |
| C[C@H]1NCc2cc(-c3ccc4c(=O)c(C(=O)O)cn(C5CC5)c4c3OC(F)F)ccc21 | 0.12 |
| COc1c(N2CC[C@@H](C3(N)CC3)C2)ccc2c(=O)c(C(=O)O)cn([C@@H]3C[C@@H]3F)c12 | 0.03 |

---

procedure-summary: Cmax in cynomolgus monkey serum at 20 mg/kg, iv
Assay type: ADME, organism-based, Macaca fascicularis
Parameters: dose 20 mg/kg, route intravenous
measured-property: Cmax (ng/mL)

| sample-smiles | measured-value |
| --- | --- |
| COc1c(N2CC[C@@H](C3(N)CC3)C2)ccc2c(=O)c(C(=O)O)cn([C@@H]3C[C@@H]3F)c12 | 12300 |

---

Test system: Streptococcus mitis
procedure-summary: Antibacterial activity against Streptococcus mitis IID685 after 18 hrs by twofold microbroth dilution method
Type: functional
conditions-used: IID685, 18 h
Listed next: entries and their corresponding MIC.

| molecule | MIC, ng/mL |
| --- | --- |
| COc1c(N2CC[C@@H](C3(N)CC3)C2)ccc2c(=O)c(C(=O)O)cn([C@@H]3C[C@@H]3F)c12 | 3 |
| COc1c(N2CC[C@@H](C3(N)CCC3)C2)ccc2c(=O)c(C(=O)O)cn([C@@H]3C[C@@H]3F)c12 | 3 |
| N[C@@H]1[C@H]2CN(c3nc4c(cc3F)c(=O)c(C(=O)O)cn4-c3ccc(F)cc3F)C[C@@H]12 [TROVAFLOXACIN] | 100 |
| CNC1([C@@H]2CCN(c3ccc4c(=O)c(C(=O)O)cn([C@@H]5C[C@@H]5F)c4c3OC)C2)CC1 | 3 |
| COc1c(N2CCNC(C)C2)c(F)cc2c(=O)c(C(=O)O)cn(C3CC3)c12 (stereo not given) [GATIFLOXACIN] | 200 |

---

Tested on: Staphylococcus aureus
procedure-summary: Antibacterial activity against levofloxacin, methicillin-resistant Staphylococcus aureus after 18 hrs by twofold microbroth dilution method
Type: functional
Listed next: entries and their corresponding MIC50.

| compound | comparison-sign | MIC50, mg/L |
| --- | --- | --- |
| C[C@H]1COc2c(N3CCN(C)CC3)c(F)cc3c(=O)c(C(=O)O)cn1c23.C[C@H]1COc2c(N3CCN(C)CC3)c(F)cc3c(=O)c(C(=O)O)cn1c23.O [LEVOFLOXACIN] | = | 16 |
| O=C(O)c1cn(C2CC2)c2cc(N3CCNCC3)c(F)cc2c1=O [CIPROFLOXACIN] | > | 64 |
| CN[C@H](CC(C)C)C(=O)N[C@H]1C(=O)N[C@@H](CC(N)=O)C(=O)N[C@H]2C(=O)N[C@H]3C(=O)N[C@H](C(=O)N[C@H](C(=O)O)c4cc(O)cc(O)c4-c4cc3ccc4O)[C@H](O)c3ccc(c(Cl)c3)Oc3cc2cc(c3O[C@@H]2O[C@H](CO)[C@@H](O)[C@H](O)[C@H]2O[C@H]2C[C@](C)(N)[C@H](O)[C@H](C)O2)Oc2ccc(cc2Cl)[C@H]1O [VANCOMYCIN] | = | 1 |

---

procedure-summary: Half life in Crj:CD rat serum at 20 mg/kg, iv
Assay type: ADME, organism-based
Parameters: dose 20 mg/kg, route intravenous
measured-property: half-life (min)

| sample-smiles | measured-property | unit-abbrev | measured-value |
| --- | --- | --- | --- |
| COc1c(N2CC[C@@H](C3(N)CC3)C2)ccc2c(=O)c(C(=O)O)cn([C@@H]3C[C@@H]3F)c12 | half-life | min | 72 |

---

procedure-summary: AUC (0 to 6 hrs) in cynomolgus monkey serum at 20 mg/kg, po
Format: ADME, organism-based, Macaca fascicularis, Plasma
Parameters: time < 6 hr, dose 20 mg/kg, route oral
measured-property: AUC(0-t) at 6 h (ng·h/mL)

| sample-smiles | measured-property | measured-value |
| --- | --- | --- |
| COc1c(N2CC[C@@H](C3(N)CC3)C2)ccc2c(=O)c(C(=O)O)cn([C@@H]3C[C@@H]3F)c12 | AUC(0-t) at 6 h | 37500 |

---

procedure-summary: Ratio of AUC (0 to 6 hrs) liver to serum in Crj:CD rat […] at 20 mg/kg, iv
Format: ADME, organism-based
Parameters: dose 20 mg/kg, route intravenous
measured-property: Kp

| sample-smiles | measured-property | measured-value |
| --- | --- | --- |
| COc1c(N2CC[C@@H](C3(N)CC3)C2)ccc2c(=O)c(C(=O)O)cn([C@@H]3C[C@@H]3F)c12 | Kp | 4.6 |

---

procedure-summary: Aqueous […] of the compound
Assay type: physicochemical
conditions-used: aqueous (not further specified)
Listed next: entries and their corresponding solubility.
measured-property: solubility (µg/mL)

| sample-smiles | unit-abbrev | comparison-sign | measured-value |
| --- | --- | --- | --- |
| COc1c(N2CC[C@@H](C3(N)CCC3)C2)ccc2c(=O)c(C(=O)O)cn([C@@H]3C[C@@H]3F)c12 | µg/mL | = | 604 |
| COc1c(N2CC[C@@H]([C@H](C)N)C2)ccc2c(=O)c(C(=O)O)cn(C3CC3)c12 | µg/mL | > | 10000 |
| COc1c(N2CC[C@@H]([C@H](C)N)C2)c(F)cc2c(=O)c(C(=O)O)cn(C3CC3)c12 | µg/mL | = | 89 |
| CNC1([C@@H]2CCN(c3c(F)cc4c(=O)c(C(=O)O)cn([C@@H]5C[C@@H]5F)c4c3OC)C2)CC1 | µg/mL | = | 173 |

---

Test system: Mus musculus
procedure-summary: Toxicity in Slc:ddY mouse at 100 mg/kg, iv
Type: organism-based
Design: dose 100 mg/kg, route intravenous
conditions-used: in vivo

| sample-smiles | tested-system | Activity |
| --- | --- | --- |
| COc1c(N2CC[C@@H](C3(N)CCC3)C2)ccc2c(=O)c(C(=O)O)cn([C@@H]3C[C@@H]3F)c12 | Mus musculus | Non-toxic |
| COc1c(N2CC[C@@H](C3(N)CC3)C2)ccc2c(=O)c(C(=O)O)cn([C@@H]3C[C@@H]3F)c12 | Mus musculus | Non-toxic |
| COc1c(N2CC[C@@H]([C@H](C)N)C2)ccc2c(=O)c(C(=O)O)cn(C3CC3)c12 | Mus musculus | Toxic |
| CNC1([C@@H]2CCN(c3ccc4c(=O)c(C(=O)O)cn([C@@H]5C[C@@H]5F)c4c3OC)C2)CC1 | Mus musculus | Non-toxic |
| COc1c(N2CC[C@@H](C3(N)CC3)C2)c(F)cc2c(=O)c(C(=O)O)cn([C@@H]3C[C@@H]3F)c12 | Mus musculus | Toxic |
| COc1c(N2CC[C@@H]([C@H](C)N)C2)c(F)cc2c(=O)c(C(=O)O)cn(C3CC3)c12 | Mus musculus | Toxic |
| CNC1([C@@H]2CCN(c3c(F)cc4c(=O)c(C(=O)O)cn([C@@H]5C[C@@H]5F)c4c3OC)C2)CC1 | Mus musculus | Toxic |

---

procedure-summary: Half life in Crj:CD rat kidney at 20 mg/kg, iv
Format: ADME, organism-based
Parameters: dose 20 mg/kg, route intravenous

| sample-smiles | half-life |
| --- | --- |
| COc1c(N2CC[C@@H](C3(N)CC3)C2)ccc2c(=O)c(C(=O)O)cn([C@@H]3C[C@@H]3F)c12 | 1.4 h |

---

procedure-summary: AUC (0 to 6hrs) in Crj:CD rat serum at 20 mg/kg, po
Type: ADME, organism-based
Design: time < 6 hr, dose 20 mg/kg, route oral
measured-property: AUC(0-t) at 6 h (ng·h/mL)

| sample-smiles | measured-property | unit-abbrev | measured-value |
| --- | --- | --- | --- |
| COc1c(N2CC[C@@H](C3(N)CC3)C2)ccc2c(=O)c(C(=O)O)cn([C@@H]3C[C@@H]3F)c12 | AUC(0-t) at 6 h | ng·h/mL | 9800 |
